SYSTEM: T1, FLAG-tagged hAng-2 (human, UniProt O15123 19-496)
T1 sequence: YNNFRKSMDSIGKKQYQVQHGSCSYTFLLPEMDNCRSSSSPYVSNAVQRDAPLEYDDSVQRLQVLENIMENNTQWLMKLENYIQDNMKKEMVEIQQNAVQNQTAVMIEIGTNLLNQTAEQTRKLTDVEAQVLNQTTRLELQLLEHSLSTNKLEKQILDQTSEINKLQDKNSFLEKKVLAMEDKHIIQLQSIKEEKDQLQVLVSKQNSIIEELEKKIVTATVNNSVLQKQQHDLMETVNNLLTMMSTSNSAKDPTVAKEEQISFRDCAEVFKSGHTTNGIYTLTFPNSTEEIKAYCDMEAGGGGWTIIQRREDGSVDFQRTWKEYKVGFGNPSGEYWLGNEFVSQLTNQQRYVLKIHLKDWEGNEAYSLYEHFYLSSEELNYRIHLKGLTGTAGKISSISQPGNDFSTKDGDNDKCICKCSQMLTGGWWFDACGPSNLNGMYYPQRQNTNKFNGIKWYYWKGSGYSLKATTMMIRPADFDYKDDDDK
PROTOCOL_DETAILS: Ang2:Tie2 competition ELISA; hTie2-Fc coated, 400 ng/ml FLAG-tagged hAng-2, anti-FLAG-HRP detection
pIC50: −log10 of the molar value.
Parameter pIC50: see the listing below.

| BINDER | pIC50 |
| --- | --- |
| SAIT-ANG2-AB-m3E2 (antibody, V domains shown, also called hybridoma KCLRF-BP-00305) VH: EVQLQQSGAELVKPGASVKLSCTASGFNIKDPYIHWVKQRPEQGLEWIGRIDPANGNTKYDPKFQGKATITADTSSNTAYLQLSSLTSEDTAVYYCVRRWDGGGFDYWGQGTSVTVSS VL: DIQMTQTTSSLSASLGDRVTISCRASQDISNYLNWYQQKPDGTVKLLIYYTSRLHSGVPSRFSGSGSGTDYSLTITNLEQEDIATYFCQQGNTLPWTFGGGTKLEIK | 9.26 |
| SAIT-ANG2-AB-m1A10 (antibody, V domains shown, also called hybridoma KCLRF-BP-00306) VH: QVQLQQSGAELMKPGASVKISCKATDYTFSSYWLEWLIQRPGHGLEWIGEILPGSGSTNYNEKFRGKATFTEDTSSNTAYMQLSSLTSEDSAVYYCARGNHNSYYYAMDYWGQGTSVTVSS VL: DIVLTQSPASLAVSLGQRATISCRASESVDSYGNSFMHWYQQKPGQPPKLLIYRASNLDSGIPARFSGSGSRTDFTLTINPVEADDVATYYCQQSNEDPLTFGAGTKLELK | 8.87 |
| SAIT-ANG2-AB-m8D3 (antibody, V domains shown, also called hybridoma KCLRF-BP-00308) VH: EVQLQQSGPELVKPGDSVKMSCKASGYTFTDYYMKWVRQSHGKSLQWVGEINPKNGDTFYNQIFKGKATLTVDKSSSTAYMQLTSLTSEDSAVYYCTRENDYDVGFFDYWGQGTSVTVSS VL: TIVMTQTPKFLLVSAGDRITITCKASQSVSNDVAWYQQKPGQSPKLLIYYASNRYPGVPDRFTGSGYGTDFTFTISTVQAEDLAVYFCQQDYTSPWTFGGGTELEIK | 9.00 |
| SAIT-ANG2-AB-m1B6 (antibody, V domains shown, also called hybridoma KCLRF-BP-00307) VH: QIQLVQSGPELKKPGETVKISCKASGYTFTNYGMNWVKQAPGKGLKWMGWINTYTGEPTYADDFKGRFAFSLETSASTAYLQINNLKNEDTATYFCARDHDGYLMDYWGQGTSVTVSS VL: DIQMTQTTSSLSASLGDRVTISCSTSQGISNYLNWYQQKPDGTVKLLIFYTSSLHSGVPSRFSGSGSGTDYSLTISNLEPEDIATYYCQQYSKLPYTFGGGTKLEIK | 8.54 |
